target: Acetolactate synthase, chloroplastic (Arabidopsis thaliana)
Sequence (P17597 whole entry): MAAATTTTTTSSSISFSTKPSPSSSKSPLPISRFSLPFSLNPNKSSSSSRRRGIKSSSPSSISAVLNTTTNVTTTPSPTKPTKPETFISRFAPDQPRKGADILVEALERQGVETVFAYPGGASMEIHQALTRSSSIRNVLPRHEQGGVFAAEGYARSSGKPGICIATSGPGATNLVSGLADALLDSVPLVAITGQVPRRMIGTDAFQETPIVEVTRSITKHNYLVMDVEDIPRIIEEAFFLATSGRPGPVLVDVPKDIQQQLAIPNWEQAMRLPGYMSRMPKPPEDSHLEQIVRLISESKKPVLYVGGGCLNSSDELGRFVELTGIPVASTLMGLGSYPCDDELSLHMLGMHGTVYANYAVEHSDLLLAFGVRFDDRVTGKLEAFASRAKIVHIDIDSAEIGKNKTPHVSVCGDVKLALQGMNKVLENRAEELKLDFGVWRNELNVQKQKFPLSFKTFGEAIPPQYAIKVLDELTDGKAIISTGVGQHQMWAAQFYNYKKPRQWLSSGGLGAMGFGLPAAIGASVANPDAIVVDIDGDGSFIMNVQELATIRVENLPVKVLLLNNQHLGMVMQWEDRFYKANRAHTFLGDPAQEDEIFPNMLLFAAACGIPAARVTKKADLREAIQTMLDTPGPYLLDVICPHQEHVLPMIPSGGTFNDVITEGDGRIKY
pIC50: −log10 of the molar value.
Some molecules, each annotated with its measured pIC50.
reported property: pIC50

- O=C(OCn1ccc(=O)[nH]c1=O)c1ccc(Cl)cc1: 3.74
- O=C(OCn1ccc(=O)[nH]c1=O)c1ccc(F)cc1: 3.67
- Cc1ccc(NS(=O)(=O)c2ccc(F)cc2)nc1: 3.82

* * *

So I've got pIC50 readings for Acetolactate synthase, chloroplastic (Arabidopsis thaliana), take a look.
pIC50: −log10 of the molar value.
reported property: pIC50

* O=C(OCn1ccc(=O)[nH]c1=O)c1ccc(I)cc1 | < 3.57
* O=C(OCn1ccc(=O)[nH]c1=O)c1c(Cl)cc(C(F)(F)F)cc1Cl | < 3.58
* COc1ccc(C(=O)OCn2ccc(=O)[nH]c2=O)cc1 | < 3.44
* O=C(OCn1ccc(=O)[nH]c1=O)c1ccc([N+](=O)[O-])cc1 | < 3.46
